# assay name: Stability investigation of the lyophilisate (visual inspection, reverse HPLC)
# Format: physicochemical
# conditions used: storage 25° C./60% rH, T = 0
measure: Amount/Contents of lyophilisate (%)
Give the number; % is assumed, so skip it.

Return reported Amount/Contents of lyophilisate; argument: C[C@@H]1NC(=O)CNC(=O)[C@H](CCC(=O)O)NC(=O)[C@@H]2CCCN2C(=O)[C@H]([C@@H](C)O)NC(=O)[C@H](CCC(=O)O)NC(=O)[C@H](CCCNC(=N)N)NC(=O)[C@H](CCC(N)=O)NC(=O)CNC(=O)CCCNC(=O)C[C@@H](C(=O)O)NC(=O)[C@H](Cc2ccc(O)cc2)NC(=O)[C@H](Cc2c[nH]c3ccccc23)NC(=O)[C@@H]2CCCN2C(=O)[C@H](CCCCN)NC(=O)[C@H](C)NC(=O)[C@H](CCC(=O)O)NC1=O
100

Fill in the blank: the reported Amount/Contents of lyophilisate of C[C@@H]1NC(=O)CNC(=O)[C@H](CCC(=O)O)NC(=O)[C@@H]2CCCN2C(=O)[C@H]([C@@H](C)O)NC(=O)[C@H](CCC(=O)O)NC(=O)[C@H](CCCNC(=N)N)NC(=O)[C@H](CCC(N)=O)NC(=O)CNC(=O)[C@@H](N)CCCNC(=O)CNC(=O)[C@H](Cc2ccc(O)cc2)NC(=O)[C@H](Cc2c[nH]c3ccccc23)NC(=O)[C@@H]2CCCN2C(=O)[C@H](CCCCN)NC(=O)[C@H](C)NC(=O)[C@H](CCC(=O)O)NC1=O is ____.
100

* * *

# assay name: Stability investigation of the lyophilisate (visual inspection, reverse HPLC)
# Type: physicochemical
# conditions used: storage 2-8° C., T = 0
Please respond with reported Amount/Contents of lyophilisate for every item in the list.
Reply with just the number (in %).

Quick one: Amount/Contents of lyophilisate of C[C@@H]1NC(=O)CNC(=O)[C@H](CCC(=O)O)NC(=O)[C@@H]2CCCN2C(=O)[C@H]([C@@H](C)O)NC(=O)[C@H](CCC(=O)O)NC(=O)[C@H](CCCNC(=N)N)NC(=O)[C@H](CCC(N)=O)NC(=O)CNC(=O)[C@@H](N)CCCCNC(=O)CNC(=O)[C@H](Cc2ccc(O)cc2)NC(=O)[C@H](Cc2c[nH]c3ccccc23)NC(=O)[C@@H]2CCCN2C(=O)[C@H](CCCCN)NC(=O)[C@H](C)NC(=O)[C@H](CCC(=O)O)NC1=O ?
100

Dear colleague, I am looking for the recorded Amount/Contents of lyophilisate of the following molecule: C[C@@H]1NC(=O)CNC(=O)[C@H](CCC(=O)O)NC(=O)[C@@H]2CCCN2C(=O)[C@H]([C@@H](C)O)NC(=O)[C@H](CCC(=O)O)NC(=O)[C@H](CCCNC(=N)N)NC(=O)[C@H](CCC(N)=O)NC(=O)CNC(=O)[C@@H]2CCCN2C(=O)[C@H](CO)NC(=O)[C@@H](N)CCCCNC(=O)CC[C@@H](C(=O)O)NC(=O)[C@H](Cc2ccc(O)cc2)NC(=O)[C@H](Cc2c[nH]c3ccccc23)NC(=O)[C@@H]2CCCN2C(=O)[C@H](CCCCN)NC(=O)[C@H](C)NC(=O)[C@H](CCC(=O)O)NC1=O
100

* * *

# assay name: Stability investigation of the lyophilisate (visual inspection, reverse HPLC)
# Assay type: physicochemical
# conditions used: storage 2-8° C., T = 0
Answer each item with its documented Purity of lyophilisate (stability study).
Your answer is read as %, so omit the unit and give the number.

Item C[C@@H]1NC(=O)CNC(=O)[C@H](CCC(=O)O)NC(=O)[C@@H]2CCCN2C(=O)[C@H]([C@@H](C)O)NC(=O)[C@H](CCC(=O)O)NC(=O)[C@H](CCCNC(=N)N)NC(=O)[C@H](CCC(N)=O)NC(=O)CNC(=O)CCCNC(=O)C[C@@H](C(=O)O)NC(=O)[C@H](Cc2ccc(O)cc2)NC(=O)[C@H](Cc2c[nH]c3ccccc23)NC(=O)[C@@H]2CCCN2C(=O)[C@H](CCCCN)NC(=O)[C@H](C)NC(=O)[C@H](CCC(=O)O)NC1=O [SEQ ID NO: 5] has what recorded Purity of lyophilisate (stability study)?
99

For the compound shown here, C[C@@H]1NC(=O)CNC(=O)[C@H](CCC(=O)O)NC(=O)[C@@H]2CCCN2C(=O)[C@H]([C@@H](C)O)NC(=O)[C@H](CCC(=O)O)NC(=O)[C@H](CCCNC(=N)N)NC(=O)[C@H](CCC(N)=O)NC(=O)CNC(=O)[C@@H](N)CCCCNC(=O)CNC(=O)[C@H](Cc2ccc(O)cc2)NC(=O)[C@H](Cc2c[nH]c3ccccc23)NC(=O)[C@@H]2CCCN2C(=O)[C@H](CCCCN)NC(=O)[C@H](C)NC(=O)[C@H](CCC(=O)O)NC1=O [SEQ ID NO: 3] , give the reported Purity of lyophilisate (stability study).
98

Could you tell me which Purity of lyophilisate (stability study) is on file for C[C@@H]1NC(=O)CNC(=O)[C@H](CCC(=O)O)NC(=O)[C@@H]2CCCN2C(=O)[C@H]([C@@H](C)O)NC(=O)[C@H](CCC(=O)O)NC(=O)[C@H](CCCNC(=N)N)NC(=O)[C@H](CCC(N)=O)NC(=O)CNC(=O)[C@@H](N)CCCNC(=O)CNC(=O)[C@H](Cc2ccc(O)cc2)NC(=O)[C@H](Cc2c[nH]c3ccccc23)NC(=O)[C@@H]2CCCN2C(=O)[C@H](CCCCN)NC(=O)[C@H](C)NC(=O)[C@H](CCC(=O)O)NC1=O [SEQ ID NO: 4] ?
97
